readout_name: melting point

Some solved cases for reference:
compound: CN(C)c1ccc(C(=O)Nc2nc(-c3ccco3)c(C(=O)C3CCOCC3)s2)cc1
test_result: 238 to 240 °C
--
compound: N#Cc1ccc(C(=O)Nc2nc(-c3ccco3)c(C(=O)C3CCOCC3)s2)o1
test_result: 222 to 223 °C
--
compound: Cn1ccc(C(=O)Nc2nc(-c3ccco3)c(C(=O)c3ccccn3)s2)cc1=O
test_result: 280 to 285 °C
--
compound: COCC(=O)c1sc(NC(=O)c2ccc(F)cc2)nc1-c1ccco1
test_result: 166 to 167 °C
--
compound: CCOC(=O)Nc1nc(-c2ccco2)c(C(=O)C2CCOCC2)s1
test_result: 152 to 153 °C

Q: Name the reported melting point value associated with the compound O=C(CC1CCOCC1)Nc1nc(-c2ccco2)c(C(=O)C2CCOCC2)s1
A: 206 to 209 °C

Q: Name the reported melting point value associated with the compound CC(O)c1cc2cc(C(=O)Nc3nc(-c4ccco4)c(C(=O)c4ccccn4)s3)ccc2o1 (centres unmarked)
A: 246 to 249 °C

Q: Name the reported melting point value associated with the compound O=C(Nc1nc(-c2ccco2)c(C(=O)C2CCOCC2)s1)c1cnccn1
A: 200 to 205 °C

* * *

readout_name: melting point

Some solved cases for reference:
compound: O=C(Nc1nc(-c2ccco2)c(C(=O)c2cnccn2)s1)c1ccncc1 [Compound 374]
melting point: > 300 °C

compound: O=C(CNC12CC3CC(CC(C3)C1)C2)Nc1nc(-c2ccco2)c(C(=O)C2CCOCC2)s1 [Compound 577]
melting point: 168 to 170 °C

Q: Name the reported melting point value associated with the compound O=C(Nc1nc(-c2ccco2)c(C(=O)c2ccccn2)s1)c1ccncc1 [Compound 187]
A: 218 to 227 °C

Q: Name the reported melting point value associated with the compound O=C(Nc1nc(-c2ccco2)c(C(=O)C2CCC2)s1)C1CC1 [Compound 427]
A: 200 to 205 °C

Q: Name the reported melting point value associated with the compound O=C(CN1CCCC1)Nc1nc(-c2ccco2)c(C(=O)C2CCOCC2)s1 [Compound 536]
A: 115 to 117 °C

Q: Name the reported melting point value associated with the compound Cc1cc(C(=O)Nc2nc(-c3ccco3)c(C(=O)C3CCOCC3)s2)ccn1 [Compound 500]
A: 169 to 173 °C

Q: Name the reported melting point value associated with the compound Cc1cc(C(=O)Nc2nc(-c3ccco3)c(C(=O)c3ccccn3)s2)c(C)o1 [Compound 240]
A: 195 to 198 °C

Q: Name the reported melting point value associated with the compound Cc1ccccc1C(=O)Nc1nc(-c2ccco2)c(C(=O)C2CCOCC2)s1 [Compound 458]
A: 204 to 206 °C

Q: Name the reported melting point value associated with the compound O=C(Nc1nc(-c2occc2-c2ccccc2)c(-c2ccncc2)s1)c1ccncc1 [Compound 603]
A: 190 to 192 °C

Q: Name the reported melting point value associated with the compound O=C(Nc1nc(-c2ccco2)c(C(=O)C2CCC2)s1)c1ccco1 [Compound 425]
A: 188 to 192 °C

Q: Name the reported melting point value associated with the compound COc1ccc(C(=O)Nc2nc(-c3ccco3)c(-c3ccncc3)s2)cc1 [Compound 103]
A: 235 to 245 °C

Q: Name the reported melting point value associated with the compound O=C(Nc1nc(-c2ccco2)c(C(=O)C2CCOCC2)s1)c1ccc2c(c1)OCO2 [Compound 496]
A: 194 to 196 °C

Q: Name the reported melting point value associated with the compound Cc1ccc(C(=O)c2sc(NC(=O)c3ccncc3)nc2-c2ccco2)cn1 [Compound 313]
A: 230 to 232 °C (dec.)

Q: Name the reported melting point value associated with the compound Cc1ccc(-c2nc(NC(=O)c3ccncc3)sc2-c2ccncc2)o1 [Compound 601]
A: 274 to 276 °C

Q: Name the reported melting point value associated with the compound Cn1cc(-c2sc(NC(=O)c3ccncc3)nc2-c2ccco2)ccc1=O [Compound 126]
A: 294 to 295 °C

Q: Name the reported melting point value associated with the compound O=C(Nc1nc(-c2ccoc2)c(C(=O)C2CCOCC2)s1)c1ccnc(Cl)c1 [Compound 616]
A: 202 to 204 °C

Q: Name the reported melting point value associated with the compound O=C(Nc1nc(-c2ccco2)c(C(=O)c2ccccn2)s1)c1ccnc(N2CCCCC2)c1 [Compound 218]
A: 136 to 141 °C

Q: Name the reported melting point value associated with the compound Cc1cc(C(=O)Nc2nc(-c3ccoc3)c(C(=O)C3CCOCC3)s2)ccn1 [Compound 615]
A: 202 to 204 °C

Q: Name the reported melting point value associated with the compound N#Cc1ccc(C(=O)Nc2nc(-c3ccco3)c(C(=O)C3CCC(=O)CC3)s2)cc1 [Compound 452]
A: 211 to 212 °C

Q: Name the reported melting point value associated with the compound CC(=O)c1cccc(C(=O)Nc2nc(-c3ccco3)c(C(=O)c3ccccn3)s2)c1 [Compound 207]
A: 168 to 169 °C

Q: Name the reported melting point value associated with the compound Cc1ccc(C(=O)c2sc(NC(=O)c3ccncc3)nc2-c2ccco2)o1 [Compound 343]
A: 185 to 189 °C

* * *

melting point: recorded values

Some solved cases for reference:
compound: O=C(Nc1nc(-c2ccoc2)c(C(=O)C2CCOCC2)s1)c1ccc(Cl)nc1 [Compound 612]
melting point: 237 to 239 °C
--
compound: CN(C)CC(=O)Nc1nc(-c2ccco2)c(C(=O)C2CCOCC2)s1 [Compound 533]
melting point: 129 to 130 °C
--
compound: O=C(Nc1nc(-c2ccco2)c(C(=O)C2CCOCC2)s1)c1ccncc1 [Compound 455]
melting point: 202 to 209 °C

Next, consider the following compound.
Q: Name the reported melting point value associated with the compound Cc1cc(C(=O)Nc2nc(-c3ccco3)c(C(=O)c3ccnc(C)c3)s2)ccn1 [Compound 333]
A: 205 to 229 °C

* * *

readout_name: melting point

Some solved cases for reference:
compound: O=C(CN1CCCCC1)Nc1nc(-c2ccco2)c(C(=O)C2CCOCC2)s1 [Compound 542]
test_result: 146 to 147 °C
//
compound: O=C(CN1CCC(N2CCOCC2)CC1)Nc1nc(-c2ccco2)c(C(=O)c2ccccn2)s1 [Compound 271]
test_result: 149 to 150 °C
//
compound: CC(=O)Nc1nc(-c2ccco2)c(C(=O)c2ccccn2)s1 [Compound 188]
test_result: 216 to 217 °C

Q: Name the reported melting point value associated with the compound O=C(Nc1nc(-c2ccco2)c(C(=O)C2CCOCC2)s1)c1ccc(F)cc1F [Compound 490]
A: 213 to 215 °C

Q: Name the reported melting point value associated with the compound COc1cccc(C(=O)Nc2nc(-c3ccoc3)c(C(=O)C3CCOCC3)s2)c1 [Compound 619]
A: 194 to 196 °C

Q: Name the reported melting point value associated with the compound O=C(c1ccccn1)c1sc(NC(=O)C2CCOCC2)nc1-c1ccco1 [Compound 194]
A: 234 to 235 °C

Q: Name the reported melting point value associated with the compound COc1ccccc1C(=O)Nc1nc(-c2ccco2)c(C(=O)C2CC2)s1 [Compound 420]
A: 150 to 154 °C

Q: Name the reported melting point value associated with the compound O=C(Nc1nc(-c2ccco2)c(C(=O)C2CCOCC2)s1)c1cccc2c1OC(F)(F)O2 [Compound 497]
A: 206 to 207 °C

* * *

readout_name: melting point

Some solved cases for reference:
compound: Cn1ccc(-c2sc(NC(=O)c3ccncc3)nc2-c2ccco2)cc1=O
melting point: 280 to 282 °C

compound: O=C(COc1ccccc1)Nc1nc(-c2ccco2)c(C(=O)C2CCOCC2)s1
melting point: 148 to 150 °C

compound: Cc1ccc(C(=O)Nc2nc(-c3ccco3)c(C(=O)C3CCOCC3)s2)o1
melting point: 209 to 212 °C

compound: O=C(Nc1nc(-c2ccco2)c(C(=O)c2cccnc2)s1)c1ccco1
melting point: 234 to 236 °C

compound: O=C(Nc1nc(-c2ccco2)c(C(=O)C2CCOCC2)s1)c1ccccc1Cl
melting point: 160 to 162 °C

Q: Name the reported melting point value associated with the compound CCN(CC)C(=O)C1CCCN(CC(=O)Nc2nc(-c3ccco3)c(C(=O)c3ccccn3)s2)C1.Cl (centres unmarked)
A: 180 to 185 °C

Q: Name the reported melting point value associated with the compound O=C(Nc1nc(-c2ccco2)c(C(=O)C2CCOCC2)s1)c1ccc(N2CCOCC2)nc1
A: 166 to 170 °C

Q: Name the reported melting point value associated with the compound Cc1ncccc1C(=O)c1sc(NC(=O)c2ccncc2)nc1-c1ccco1
A: 230 to 234 °C

* * *

readout_name: melting point

smi: O=C(Nc1nc(-c2ccoc2)c(C(=O)c2ccccn2)s1)c1ccncc1
melting point: 264 to 266 °C

Q: Name the reported melting point value associated with the molecule O=C(CN1CCN(c2ncccn2)CC1)Nc1nc(-c2ccco2)c(C(=O)c2ccccn2)s1
A: 199 to 200 °C

Q: Name the reported melting point value associated with the molecule O=C(CN1CCC(N2CCCC2)CC1)Nc1nc(-c2ccco2)c(C(=O)C2CCOCC2)s1
A: 183 to 184 °C

Q: Name the reported melting point value associated with the molecule CC(=O)N1CCN(CC(=O)Nc2nc(-c3ccco3)c(C(=O)c3ccccn3)s2)CC1
A: 170 to 171 °C

Q: Name the reported melting point value associated with the molecule N#Cc1ccc(C(=O)Nc2nc(-c3ccco3)c(C(=O)C3CCC3)s2)cc1
A: 220 to 225 °C

Q: Name the reported melting point value associated with the molecule Cn1cc(C(=O)c2sc(NC(=O)c3ccncc3)nc2-c2ccco2)ccc1=O
A: 294 to 295 °C

Q: Name the reported melting point value associated with the molecule COc1ccccc1C(=O)Nc1nc(-c2ccco2)c(C(=O)c2ccccn2)s1
A: 205 to 208 °C

Q: Name the reported melting point value associated with the molecule O=C(Nc1nc(-c2ccco2)c(C(=O)c2ccccn2)s1)c1ccc([N+](=O)[O-])o1
A: 278 to 283 °C (dec.)
